Reference source for all entries: PubChem BioAssay (NCI)

Form field: TGI (one value per entry).
- System: OVCAR-5 ovarian
- experiment: NCI tumour cell line growth inhibition, 48 h

Use the examples below as a reference point.
{"compound": "c1ccc(-c2n(Cc3ccc4ccccc4n3)c3ccccc3[n+]2Cc2ccc3ccccc3n2)cc1", "assay.endpoint": "TGI", "value.measured": "2 µM"}
{"compound": "Nc1c(C(=O)Nc2cccc3ccccc23)sc2nc3c(cc12)CCCC3", "assay.endpoint": "TGI", "value.measured": "> 100 µM"}
{"compound": "Clc1ccccc1-c1nc2ccccc2[nH]1", "assay.endpoint": "TGI", "value.measured": "> 100 µM"}
{"compound": "CC(=O)c1ccc(NC(=O)/C(=N\\NC(N)=O)C(C#N)CC(C)(C)C=O)cc1 (stereo not given)", "assay.endpoint": "TGI", "value.measured": "> 100 µM"}
{"compound": "CC[C@@]1(O)C(=O)OCc2c1cc1n(c2=O)Cc2c-1nc1ccccc1c2/C=N\\NC(=O)C(N)CS (stereo not given in full)", "assay.endpoint": "TGI", "value.measured": "> 100 µM"}
{"compound": "CCN(CC)C(=S)SNCCc1ccc(S(N)(=O)=O)cc1", "assay.endpoint": "TGI", "value.measured": "30.4 µM"}
{"compound": "CC(=O)OCCC/C(=C\\c1ccc2ccccc2c1)[N+](=O)[O-]", "assay.endpoint": "TGI", "value.measured": "3.42 µM"}
{"compound": "CSC(=S)N(C)NC(=O)c1cccc(C(=O)NN(C)C(=S)SC)n1", "assay.endpoint": "TGI", "value.measured": "> 100 µM"}
{"compound": "COC(=O)Nc1nc2c(OC)c(OC)c(OC)cc2[nH]1", "assay.endpoint": "TGI", "value.measured": "> 100 µM"}

Requested field: TGI. Item: "COc1ccc(OC)c(CNc2ccc(O)c(C(=O)NCCc3ccc(F)cc3)c2)c1"
64.9 µM

---

- System: OVCAR-5 ovarian
- experiment: NCI tumour cell line growth inhibition, 48 h; in the data active = GI50 below about 0.43 µM; inactive = the rest
Pick from active, inactive when you respond.

Sample answers from the record:
{"molecule": "CC(=O)OCCC/C(=C\\c1ccc2ccccc2c1)[N+](=O)[O-]", "answer.label": "inactive"}
{"molecule": "Cc1cc[c-]cc1.Fc1c[c-]c(-c2ccccn2)c(F)c1.N#CCC[PH+](CCC#N)c1ccccc1.[Pt+2]", "answer.label": "inactive"}
{"molecule": "Cc1c(N2C(=O)/C(=C\\c3ccc(O)cc3)N=C2c2ccccc2)c(=O)n(-c2ccccc2)n1C", "answer.label": "inactive"}
{"molecule": "COc1cc(C2c3cc4c(cc3C3OC(=O)C2C3CO)OCO4)cc(OC)c1OC (stereo not given)", "answer.label": "active"}
{"molecule": "O=C(O)c1cn(C2CC2)c2cc(N3CCN(S(=O)(=O)c4ccc(Cl)c(Cl)c4)CC3)c(F)cc2c1=O", "answer.label": "inactive"}
{"molecule": "Cc1cc(-c2ccccc2)c(C)n1Cc1ccc(Cl)cc1", "answer.label": "inactive"}
{"molecule": "Cc1ccc(C(=O)Nc2ccc(CN3CCN(C)CC3)c(C(F)(F)F)c2)cc1C#Cc1cncc2ncccc12", "answer.label": "inactive"}
{"molecule": "CC12C=CC(C)(O1)C1C2c2ccccc2S1(=O)=O (stereo not given)", "answer.label": "inactive"}

// outcome(item) with item = "COc1ccc(N2CCN(CC(=O)N3CCN(c4nnc(-c5ccccc5)c(-c5ccccc5)n4)CC3)CC2)cc1"
inactive

// outcome(item) with item = O=C1C2C(C(=O)[N]1[Hg][c]1ccccc1)C1(Cl)C(Cl)=C(Cl)C2(Cl)C1(Cl)Cl (stereo not given)
inactive

// outcome(item) with item = "O=C1C=C(N2CC2)c2ccccc2C1=O"
inactive
